# Test system: P388 leukemia ip, CD2F1 mice, survival T/C
# method.notes: NCI In Vivo Anticancer Drug Screen. Data for tumor model P388 Leukemia (intraperitoneal) in CD2F1 (CDF1) mice
# condition.notes: endpoint: median survival time; dose: 12.5 mg/kg/injection; schedule: Q01DX009 (ip); vehicle: saline with Tween-80; higher = longer survival
Inconclusive results and toxic doses are left out.
observable: T/C

[[record]]
compound = "Oc1c(-c2ccccc2)cc(-c2ccc(Br)cc2)c(-c2ccc(Br)cc2)c1-c1ccccc1"
system = "P388 leukemia ip, CD2F1 mice, survival T/C"
observable = "T/C"
measured_result = "107 % of control"

[[record]]
compound = "OCC1OC(n2ncc3ccccc32)C(O)C1O (stereo not given)"
system = "P388 leukemia ip, CD2F1 mice, survival T/C"
observable = "T/C"
measured_result = "92 % of control"

[[record]]
compound = "CCS(=O)(=O)CCN1C(=O)CN=C(c2ccccc2F)c2cc(Cl)ccc21"
system = "P388 leukemia ip, CD2F1 mice, survival T/C"
observable = "T/C"
measured_result = "102 % of control"

[[record]]
compound = "O=C(Cn1cnc2c(=S)nc[nH]c21)Oc1ccc([N+](=O)[O-])cc1"
system = "P388 leukemia ip, CD2F1 mice, survival T/C"
observable = "T/C"
measured_result = "109 % of control"


Read the next record carefully.
# compound CCOC(=O)C1Cc2nc(-c3ccccc3)ncc2C1=O (stereo not given) ; its T/C = 107 % of control

###

# Test system: P388 leukemia ip, CD2F1 mice, survival T/C
# method.notes: NCI In Vivo Anticancer Drug Screen. Data for tumor model P388 Leukemia (intraperitoneal) in CD2F1 (CDF1) mice
# condition.notes: endpoint: median survival time; dose: 12.5 mg/kg/injection; schedule: Q01DX009 (ip); vehicle: saline with Tween-80
# Procedure: The antitumor activity of compounds was measured in mice bearing transplantable tumors. Survival or tumor size were measured and the results are expressed as the measurement made in the treated group (T) divided by the measurement made in the vehicle treated control group (C). The tumor model used in this assay is P388 Leukemia (intraperitoneal) in CD2F1 (CDF1) mice
Inconclusive results and toxic doses are left out. How the source made its calls: active means survival T/C of 150% or more; inactive means T/C below 125% in these data.
Just give me one of these, please: active, inactive

Examples from the recorded data:
[[record]]
compound = "BrCCC[P+](c1ccccc1)(c1ccccc1)c1ccccc1"
group = "inactive"

[[record]]
compound = "CC(CN=Cc1ccccc1O)N=Cc1ccccc1O.[Zn] (stereo unspecified)"
group = "inactive"

[[record]]
compound = "O=C(CCCc1ccc(N(CCCl)CCCl)cc1)OCCOc1ccccc1"
group = "active"


Moving on to the next compound.
Query block: How did this test come out for CC(=O)OC/C=C(\C)CC(/C=C(C)/C=C/C1=C(C)CCCC1(C)C)S(=O)(=O)c1ccccc1 (stereo unspecified) ?
Result block: inactive

###

Attribute: T/C
# Tested on: P388 leukemia ip, CD2F1 mice, survival T/C
# method.notes: NCI In Vivo Anticancer Drug Screen. Data for tumor model P388 Leukemia (intraperitoneal) in CD2F1 (CDF1) mice
# condition.notes: endpoint: median survival time; dose: 100.0 mg/kg/injection; schedule: Q04DX002 (ip); vehicle: saline; higher = longer survival
Inconclusive results and toxic doses are left out.

[[record]]
compound = "C=CC1=C(C)c2cc3[n-]c(c(CC(=O)O)c4nc(cc5[n-]c(cc1n2)c(C)c5CC)C(C)=C4C(=O)O)C(CCC(=O)O)C3C.[Pt+2] (centres undefined)"
system = "P388 leukemia ip, CD2F1 mice, survival T/C"
measured_result = "97 % of control"


Measured T/C, CC(C)=CC(=O)NCCO : 100 % of control

Item: C=C1CC2(CCCCC2Cc2ccccc2)OC1=O (centres undefined) | T/C: 100 % of control

Looking up CC(C)c1cc(C(C)C)c(S(=O)(=O)ON)c(C(C)C)c1 , I found its T/C recorded as 112 % of control
